system: Hs-578T; experiment: NCI tumour cell line growth inhibition, 48 h
Activity calls are given as the source filed them. Rule as the data show it: active = GI50 up to about 1.1 µM and inactive = higher.
Labels: active, inactive

Molecule: CC(=O)Nc1nc(C)c(S(=O)(=O)NC(=O)N2c3ccccc3CCc3ccccc32)s1
Group label: inactive

Molecule: Cc1nc(O)c(Cc2ccccc2O)c(-c2ccccc2)n1
Group label: inactive

Molecule: COc1cc(/C=C2\N=C(c3ccccc3)N(/N=C/c3cc4cc(C)ccc4nc3Cl)C2=O)cc(OC)c1OC
Group label: inactive

Molecule: COc1ccc2c(c1)C1=NCCN(CCO)c3ccc([N+](=O)[O-])c(c31)N2
Group label: active

Molecule: S=C=NCc1ccccc1 [BENZYL ISOTHIOCYANATE]
Group label: inactive

Molecule: Oc1ccc2c(c1)-c1c(c3cc(O)ccc3n1CCN1CCOCC1)CC2
Group label: inactive

Molecule: Oc1ccc(-c2nn3c(CCCCCCCCc4nnc5sc(-c6ccc(O)cc6)nn45)nnc3s2)cc1
Group label: inactive

Molecule: COc1nc(NC2OC(COC(C)=O)C(OC(C)=O)C(OC(C)=O)C2OC(C)=O)c(/N=C/C=N/c2c(NC3OC(COC(C)=O)C(OC(C)=O)C(OC(C)=O)C3OC(C)=O)nc(OC)n(C)c2=O)c(=O)n1C (centres undefined)
Group label: inactive

Molecule: C#CCCCC(=O)N(C(=O)C[S+]([O-])CC)c1ccccc1 (centres undefined)
Group label: inactive
